Test system: A549/ATCC NSCLC
Assay: NCI-60 one-dose screen, 48 h
Details: 10 µM unless noted
The panel holds about 83,000 compounds, 20% with a hit somewhere; the sample as a whole holds those more often. Active and inactive are the calls of the source. The calls were made as follows: active = growth percent below 10; inactive = the rest.
One label from this list, please: 1 for active, -1 for inactive

1. CCS(=O)(=O)N1CCCC(C(=O)Nc2nc3ccc(NC(=O)c4ccc(F)c(OC)c4F)cc3s2)C1 (centres undefined) : -1
2. CN(C)c1nc(NCCNS(=O)(=O)c2ccc(C(=O)/C=C/c3ccc(C(F)(F)F)cc3)cc2)nc(Nc2ccc(F)cc2)n1 : -1
3. O=C(/C=C/Nc1ccc2oc(=O)ccc2c1)c1cc2cc(Br)ccc2oc1=O : -1
4. CC1(C)CC[C@]2(C(=O)O)CC[C@]3(C)C(=CCC4[C@@]5(C)C[C@@H](O)[C@@H]6OC(c7ccc(F)cc7)OC[C@@]6(C)C5CC[C@]43C)C2C1 (some centres undefined) : -1

With those in mind, consider the next molecule.
Record request — test call for COc1cc2oc(-c3cccc(C(=O)Nc4ccc(Cl)cc4)c3)cc(=O)c2c(OCCNC(=O)[C@@H](N)CCC(=O)O)c1OC
-1

====

System: MDA-MB-468 breast
Experiment: NCI-60 one-dose screen, 48 h (100 = growth as untreated, 0 = no growth, -100 = all killed)
Details: 10 µM unless noted
Method: Growth inhibition of the MDA-MB-468 human Breast tumor cell line is measured as a screen for anti-cancer activity. Cells are grown in 96 well plates and exposed to the test compound for 48 hours. Compounds are tested at a single concentration, which is 10^-5 M for most compounds. The reported endpoint is percent growth (GI% or GIPRCNT), where numbers from 0 - 100% represent growth inhibition, and numbers from -100% - 0 represent cell death. […]
The panel holds about 83,000 compounds, 20% with a hit somewhere; the sample as a whole holds those more often.
With a cut-off of 30%, any growth strictly below it is called yes; any growth meeting it or above is called no.

Examples from the recorded data:
1. CCCS(=O)(=O)N1CCCC(C(=O)Nc2nc3ccc(NC(=O)c4ccc(F)c(OC)c4F)cc3s2)C1 (configuration not stated) : yes
2. CCOC(=O)C1=C(N)N(c2ccccc2)C2=C(C(=O)CC(C)(C)C2)C1c1ccc([N+](=O)[O-])cc1 (configuration not stated) : no
3. C=C1CC[C@@H]2[C@]3(C)COC(c4cn[nH]c4-c4ccc(Br)cc4)O[C@@H]3CC[C@@]2(C)[C@@H]1C/C=C1/C(=O)OCC1O (some centres not stated) : yes
4. Nc1cccc(SCc2cc3ccccc3[nH]c2=O)c1 : no
5. COc1ccc(/C=C2\C(=N)N=C(SCc3nc4ccccc4[nH]3)NC2=O)cc1 : no

Strictly below 30%: is that where growth of Cc1cccc(Nc2nc3ccccc3nc2/C=C/c2ccc(F)cc2)c1 sits?
no

Param item: COc1c(F)ccc(C(=O)Nc2ccc3nc(NC(=O)C4CCCN(S(=O)(=O)c5ccc(Br)s5)C4)sc3c2)c1F (configuration not stated)
no

And the next one, COc1ccc2oc3c4[nH]c5ccccc5c4c4c(c3c2c1)C(=O)N(C(=O)OC(C)(C)C)C4=O ?
yes

Would you kindly repeat that for CCOC(=O)C1=C(N)N(c2ccccc2)C2=C(C(=O)CC(C)(C)C2)C1c1ccc(Cl)cc1Cl (configuration not stated) ?
yes

How about CCCCn1c(O)c(N=Nc2nc(-c3cc4ccccc4oc3=O)cs2)c2cc(Br)ccc21 ?
no

Same again, this time with Cc1ccccc1[C@H]1C(C(=O)c2ccc(Cl)cc2)C2(N[C@@H]1c1ccccc1)C(=O)Nc1ccc(Br)cc12 (some centres not stated)
yes

Entry N#Cc1ccc(C(=O)Nn2c(N)cc3ccccc3c2=O)cc1 please
no

Another compound: Cn1cc(-c2nnc(N)nc2-c2c[nH]c3ccc(Br)cc23)c2cc(Br)cnc21
yes

What about CSc1ccc(NC(=O)c2ccc3nn(/C(C#N)=C/c4ccccn4)nc3c2)cc1 ?
yes

What about this compound? C=CC[N+](C)(C)CCn1c2ccccc2c2nc3cc(C)c(C)cc3nc21
yes

Moving on to the next compound: CC1(C)CC[C@]2(C(=O)O)CC[C@]3(C)C(=CCC4[C@@]5(C)C[C@@H](O)[C@@H]6OC(c7ccccc7F)OC[C@@]6(C)C5CC[C@]43C)C2C1 (some centres not stated)
yes

Then what about the compound O=C(N1c2ccccc2Sc2ccccc21)n1ccc2cccnc21 ?
no

Now consider COc1ccc(CCC2c3c(cc4c(c3OC)OCO4)CCN2C)cc1 (configuration not stated) .
yes

Note, next up: Cn1cc(NC(=O)c2cc(NC(=O)c3ccc(C#Cc4ccccc4)cc3)cn2C)cc1C(=O)NCCCN1CCOCC1
yes

Input COC(=O)/C=C/c1cccc2c1C(=O)NC(C)(c1cc3ccccc3oc1=O)N2 (configuration not stated)
no

And COc1cc2oc(-c3cccc(C(=O)Nc4ccc(Cl)cc4)c3)cc(=O)c2c(OCCNC(=O)[C@H](CCC(=O)OC(C)(C)C)NC(=O)OC(C)(C)C)c1OC ?
no

Continue with Cc1ccc(S(=O)(=O)c2nc(S(=O)(=O)c3ccc(C)cc3)c(Cl)s2)cc1
yes

Proceed to COc1cc2oc(-c3cccc(C(=O)Nc4cccc([N+](=O)[O-])c4)c3)cc(=O)c2c(OC)c1OC
no

====

Tested on: OVCAR-8 ovarian
Assay: NCI-60 one-dose screen, 48 h
Conditions: 10 µM unless noted
Compounds without any hit were thinned out: in the full panel of roughly 83,000, 20% have a hit. The source made the active and inactive calls. Rule for the calls: active = growth percent below 10; inactive = the rest.
Just give me one of these, please: label 1 for active, label 0 for inactive

Please review the entries below; each comes with its answer.
1. CCCSc1nc(NCCc2c[nH]c3ccccc23)c(C#N)c(-c2ccccc2)n1 : label 0
2. COc1c(F)ccc(C(=O)Nc2ccc3nc(NC(=O)C4CCCN(S(=O)(=O)c5cccc(C(F)(F)F)c5)C4)sc3c2)c1F (centres undefined) : label 0
3. CC(C)CSc1nc(NCCc2c[nH]c3ccccc23)c(C#N)c(-c2ccccc2)n1 : label 0
4. CSc1ccc(C(=O)Nc2ccc3nn(/C(C#N)=C/c4ccccn4)nc3c2)cc1 : label 1

Fill in: this test's call for O=C(COc1ccc(NC(=O)Nc2ccc(Cl)c(Cl)c2)cc1)N=Nc1c(O)[nH]c2ccc(Cl)cc12 is ___
label 1

One more molecule: CCN1C(=O)/C(=N\N=C(/C)c2ccc3c(c2)Nc2ccccc2S3)c2cc(Cl)ccc21
label 0

====

Tested on: SR leukemia
Test: NCI-60 one-dose screen, 48 h (100 = growth as untreated, 0 = no growth, -100 = all killed)
Conditions: 10 µM unless noted
Protocol: Growth inhibition of the SR human tumor cell line is measured as a screen for anti-cancer activity. Cells are grown in 96 well plates and exposed to the test compound for 48 hours. Compounds are tested at a single concentration, which is 10^-5 M for most compounds. The reported endpoint is percent growth (GI% or GIPRCNT), where numbers from 0 - 100% represent growth inhibition, and numbers from -100% - 0 represent cell death. For example, a value of 40 represents 60% growth inhibition. […]
Compounds without any hit were thinned out: in the full panel of roughly 83,000, 20% have a hit.
// Not fulfilled strictly below 20% in growth; Fulfilled otherwise

Answered examples (5):
1. O=C(/C=C/c1ccc(-c2ccccc2)cc1)c1nc2ccccc2n1Cc1ccc(F)cc1 : Not fulfilled
2. Cn1cc(-c2cc(N)n3nc(-c4cn(C)c5ccccc45)cc3n2)c2cc(Br)ccc21 : Not fulfilled
3. Cc1cc2nc3c4ccccc4n(CCCN(C)C)c3nc2cc1C : Not fulfilled
4. NS(=O)(=O)c1ccc(N=Nc2c(O)n(CC(=O)Nc3ccccc3Cl)c3ccccc23)cc1 : Fulfilled
5. O=C(O)Cn1c(O)c(/C=C2/C=c3cc4c(cc3=NC2=O)OCCO4)sc1=S : Fulfilled

Say whether CCCCCCCCOc1cccc(S(=O)(=O)Nc2ccc(C)cc2C(=O)O)c1 shows growth of 20% or more.
Fulfilled

Next entry: Cc1cc(=O)oc2cc(OCCCOc3ccc(/C=C/C(=O)Nc4ccccc4N)cc3)ccc12
Fulfilled

Try OCC1(CCCc2ccccc2)CCCN(c2nccc3ccccc23)C1 (stereo unspecified) next.
Not fulfilled

Param item: C=C1CC[C@@H]2[C@]3(C)COC(c4cn[nH]c4-c4ccc(C)cc4)O[C@@H]3CC[C@@]2(C)[C@@H]1C/C=C1/C(=O)OCC1O (stereo partly specified)
Not fulfilled

Next record, please: CNS(=O)(=O)c1ccc(Nc2ccc(C(F)(F)F)cc2)c(-c2cn(C)cn2)c1
Fulfilled

# iterate: C=C1CCC2C3(C)COC(c4ccco4)OC3CCC2(C)C1CC(Sc1ccccc1)C1=CCOC1=O (stereo unspecified)
Not fulfilled

====

System: ACHN renal
Assay: NCI-60 one-dose screen, 48 h (100 = growth as untreated, 0 = no growth, -100 = all killed)
Settings: 10 µM unless noted
About 83,000 compounds went through this panel and 20% of them were active in at least one assay; those are over-represented in the sample as a whole.
// classify(record): look up growth in ranges low bracket: < 20%; middle bracket: ≥ 20% and < 60%; high bracket: ≥ 60%

Record excerpt, results attached:
1) CCC(C)(C)c1ccc(OCCCCCCN2CCN(c3ccncc3)CC2)cc1 : middle bracket
2) Cc1ccc(-c2nc(C#N)c(S(=O)(=O)N3CCN(S(=O)(=O)c4ccccc4)CC3)o2)cc1 : low bracket
3) CC(=O)c1cc(C(=O)c2ccccc2)n2c1ccc1ccccc12 : high bracket
4) CCCCc1c(Nn2cnnn2)no[n+]1[O-] : middle bracket
5) O=C1NC(=O)c2c1c1c3cc(Br)ccc3[nH]c1c1oc3ccc(F)cc3c21 : low bracket
6) COc1cccc(COc2ccc(NC(=O)Nc3ccc(Cl)c(C(F)(F)F)c3)cc2)c1 : low bracket
7) Cn1cc(-c2cc(N)n3nc(-c4cn(C)c5ccc(Cl)cc45)cc3n2)c2ccccc21 : high bracket
8) COc1cc2oc(-c3cccc(C(=O)Nc4cccc([N+](=O)[O-])c4)c3)cc(=O)c2c(OC)c1OC : low bracket

Continue with the next molecule.
Looking at COc1ccc2[nH]cc(-c3nc(N)nnc3-c3cn(C)c4ncccc34)c2c1 , which class would you pick?
high bracket
